// reported Activity for each item listed
tested on: Staphylococcus aureus; assay: Biofilm degradation activity against Staphylococcus aureus ATCC 6538 assessed as biofilm formation at 4 times antibacterial MIC incubated for 24 hrs compound added post-biofilm formation by total biomass crystal violet staining-based method; format: functional

COMPOUND	STUDY TARGET	Activity, %
CCn1cc(C(=O)O)c(=O)c2cc(F)c(N3CCNC(C)C3)c(F)c21 (stereo unspecified)	Staphylococcus aureus	6
CCn1cc(C(=O)O)c(=O)c2cc(F)c(N3CC[N+]4(CC3)CN3C(=N4)C(C(=O)O)=Cc4ccccc43)nc21.[Cl-]	Staphylococcus aureus	16
CCn1cc(C(=O)O)c(=O)c2cc(F)c(N3CC[N+]4(CN5C(=N4)C(C(=O)O)=Cc4ccccc45)C(C)C3)c(F)c21.[Cl-] (stereo unspecified)	Staphylococcus aureus	6
O=C(O)c1cn(C2CC2)c2cc(N3CCNCC3)c(F)cc2c1=O	Staphylococcus aureus	31
O=C(O)C1=Cc2ccccc2N2C[N+]3(CCN(c4cc5c(cc4F)c(=O)c(C(=O)O)cn5C4CC4)CC3)N=C12.[Cl-]	Staphylococcus aureus	10
CCn1cc(C(=O)O)c(=O)c2cc(F)c(N3CCNCC3)nc21	Staphylococcus aureus	8

====

test system: Staphylococcus aureus; assay: Bactericidal activity against Staphylococcus aureus ATCC 6538 cultured in MH medium assessed as reduction in bacterial survival incubated for 48 hrs by microbroth dilution method; assay type: functional; settings: ATCC 6538, 48 h
ENDPOINT: MBC (µg/mL)

COMPOUND	OBSERVED VALUE
O=C(O)C1=Cc2ccccc2N2C[N+]3(CCN(c4cc5c(cc4F)c(=O)c(C(=O)O)cn5C4CC4)CC3)N=C12.[Cl-]	4
C[C@@H]1CN(c2c(F)c(N)c3c(=O)c(C(=O)O)cn(C4CC4)c3c2F)C[C@H](C)N1 [SPARFLOXACIN]	0.25
COc1c(N2CC[N+]3(CN4C(C)=CC(C)=C(C(=O)O)C4=N3)C(C)C2)c(F)cc2c(=O)c(C(=O)O)cn(C3CC3)c12.[Cl-] (centres undefined)	16
CC1=CC(C)=C(C(=O)O)C2=N[N+]3(CN12)[C@H](C)CN(c1c(F)c(N)c2c(=O)c(C(=O)O)cn(C4CC4)c2c1F)C[C@@H]3C.[Cl-] (some centres undefined)	16
CCn1cc(C(=O)O)c(=O)c2cnc(N3CCNCC3)nc21 [PIPEMIDIC ACID]	128
CCn1cc(C(=O)O)c(=O)c2cnc(N3CC[N+]4(CC3)CN3C(=N4)C(C(=O)O)=Cc4ccccc43)nc21.[Cl-]	512
COc1c(N2C[C@@H]3CCCN[C@@H]3C2)c(F)cc2c(=O)c(C(=O)O)cn(C3CC3)c12 [MOXIFLOXACIN]	0.125
CCn1cc(C(=O)O)c(=O)c2cc(F)c(N3CC[N+]4(CC3)CN3C(C)=CC(C)=C(C(=O)O)C3=N4)cc21.[Cl-]	128
CCn1cc(C(=O)O)c(=O)c2cc(F)c(N3CCNCC3)cc21 [NORFLOXACIN]	0.25

====

// reported Activity for each item listed
target: DNA gyrase (Escherichia coli) (UniProt P0AES6+P0AES4); test: Inhibition of Escherichia coli DNA gyrase super-coiling activity using relaxed pNO1 DNA as substrate assessed as enzyme residual activity at 10 uM incubated for 30 mins by fluorescence assay relative to control; format: protein-complex assay
ENDPOINT: Activity (%)

COMPOUND	OBSERVED VALUE
C[C@@H]1CN(c2c(F)c(N)c3c(=O)c(C(=O)O)cn(C4CC4)c3c2F)C[C@H](C)[N+]12CN1C(=N2)C(C(=O)O)=Cc2ccccc21.[Cl-] (some centres undefined)	35
CCn1cc(C(=O)O)c(=O)c2cc(F)c(N3CC[N+]4(CC3)CN3C(=N4)C(C(=O)O)=Cc4ccccc43)nc21.[Cl-]	73
CCn1cc(C(=O)O)c(=O)c2cc(F)c(N3CC[N+]4(CN5C(=N4)C(C(=O)O)=Cc4ccccc45)C(C)C3)c(F)c21.[Cl-] (centres undefined)	11
O=C(O)C1=Cc2ccccc2N2C[N+]3(CCN(c4cc5c(cc4F)c(=O)c(C(=O)O)cn5C4CC4)CC3)N=C12.[Cl-]	34

====

// reported MBC for each item listed
system: Bacillus spizizenii; test: Bactericidal activity against Bacillus subtilis ATCC 6633 cultured in MH medium assessed as reduction in bacterial survival incubated for 48 hrs by microbroth dilution method; assay type: functional; conditions: ATCC 6633, 48 h

MOLECULE	MBC (mg/L)
CCn1cc(C(=O)O)c(=O)c2cc(F)c(N3CCNC(C)C3)c(F)c21 (stereo unspecified)	0.125
O=C(O)C1=Cc2ccccc2N2C[N+]3(CCN(c4cc5c(cc4F)c(=O)c(C(=O)O)cn5C4CC4)CC3)N=C12.[Cl-]	2
CCn1cc(C(=O)O)c(=O)c2cc(F)c(N3CC[N+]4(CC3)CN3C(C)=CC(C)=C(C(=O)O)C3=N4)cc21.[Cl-]	64
CCn1cc(C(=O)O)c(=O)c2cc(F)c(N3CC[N+]4(CC3)CN3C(C)=CC(C)=C(C(=O)O)C3=N4)nc21.[Cl-]	16
CC1=CC(C)=C(C(=O)O)C2=N[N+]3(CN12)[C@H](C)CN(c1c(F)c(N)c2c(=O)c(C(=O)O)cn(C4CC4)c2c1F)C[C@@H]3C.[Cl-] (stereo partly specified)	2
CCn1cc(C(=O)O)c(=O)c2cc(F)c(N3CC[N+]4(CC3)CN3C(=N4)C(C(=O)O)=Cc4ccccc43)cc21.[Cl-]	16

====

tested on: Enterococcus hirae; experiment: Bactericidal activity against Enterococcus hirae ATCC 1052 cultured in BHI medium assessed as reduction in bacterial survival incubated for 48 hrs by microbroth dilution method; format: functional; conditions: ATCC 1052, 48 h
Cut-off 60 µg/mL on MBC: below means True, at or above means False.

COMPOUND	CLASS NAME
CCn1cc(C(=O)O)c(=O)c2cc(F)c(N3CCNC(C)C3)c(F)c21 (stereo not given)	False
CCn1cc(C(=O)O)c(=O)c2cc(F)c(N3CC[N+]4(CN5C(=N4)C(C(=O)O)=Cc4ccccc45)C(C)C3)c(F)c21.[Cl-] (stereo not given)	False
O=C(O)c1cn(C2CC2)c2cc(N3CCNCC3)c(F)cc2c1=O	False
COc1c(N2C[C@@H]3CCCN[C@@H]3C2)c(F)cc2c(=O)c(C(=O)O)cn(C3CC3)c12	True
CCn1cc(C(=O)O)c(=O)c2cc(F)c(N3CCNCC3)cc21	False
COc1c(N2CCNC(C)C2)c(F)cc2c(=O)c(C(=O)O)cn(C3CC3)c12 (stereo not given)	True
C[C@@H]1CN(c2c(F)c(N)c3c(=O)c(C(=O)O)cn(C4CC4)c3c2F)C[C@H](C)N1	True
CCn1cc(C(=O)O)c(=O)c2cc(F)c(N3CC[N+]4(CC3)CN3C(=N4)C(C(=O)O)=Cc4ccccc43)nc21.[Cl-]	False
CCn1cc(C(=O)O)c(=O)c2cc(F)c(N3CCNCC3)nc21	False
CCn1cc(C(=O)O)c(=O)c2cc(F)c(N3CC[N+]4(CC3)CN3C(C)=CC(C)=C(C(=O)O)C3=N4)nc21.[Cl-]	True

====

// reported log K for each item listed
assay: Lipophilicity, log k of the compound at 100 ug/ml by micellar electrokinetic chromatography; format: physicochemical

COMPOUND	log K
CCn1cc(C(=O)O)c(=O)c2cc(F)c(N3CC[N+]4(CC3)CN3C(=N4)C(C(=O)O)=Cc4ccccc43)cc21.[Cl-]	-0.1044
CCn1cc(C(=O)O)c(=O)c2cc(F)c(N3CCNC(C)C3)c(F)c21 (centres undefined) [LOMEFLOXACIN]	0.0766
CCn1cc(C(=O)O)c(=O)c2cnc(N3CC[N+]4(CC3)CN3C(C)=CC(C)=C(C(=O)O)C3=N4)nc21.[Cl-]	-0.5725
CCn1cc(C(=O)O)c(=O)c2cc(F)c(N3CC[N+]4(CC3)CN3C(C)=CC(C)=C(C(=O)O)C3=N4)nc21.[Cl-]	-0.3984

====

experiment: Lipophilicity, log k of the compound at 100 ug/ml by micellar electrokinetic chromatography; format: physicochemical
ENDPOINT: log K

COMPOUND	OBSERVED VALUE
COc1c(N2CC[N+]3(CN4C(=N3)C(C(=O)O)=Cc3ccccc34)C(C)C2)c(F)cc2c(=O)c(C(=O)O)cn(C3CC3)c12.[Cl-] (configuration not stated)	-0.1255
C[C@@H]1CN(c2c(F)c(N)c3c(=O)c(C(=O)O)cn(C4CC4)c3c2F)C[C@H](C)[N+]12CN1C(=N2)C(C(=O)O)=Cc2ccccc21.[Cl-] (some centres not stated)	-0.07
CCn1cc(C(=O)O)c(=O)c2cc(F)c(N3CCNCC3)nc21 [ENOXACIN]	0.1564
C[C@@H]1CN(c2c(F)c(N)c3c(=O)c(C(=O)O)cn(C4CC4)c3c2F)C[C@H](C)N1 [SPARFLOXACIN]	0.1161
COc1c(N2CC[N+]3(CN4C(C)=CC(C)=C(C(=O)O)C4=N3)C(C)C2)c(F)cc2c(=O)c(C(=O)O)cn(C3CC3)c12.[Cl-] (configuration not stated)	-0.408
CCn1cc(C(=O)O)c(=O)c2cc(F)c(N3CC[N+]4(CN5C(=N4)C(C(=O)O)=Cc4ccccc45)C(C)C3)c(F)c21.[Cl-] (configuration not stated)	-0.265
CCn1cc(C(=O)O)c(=O)c2cc(F)c(N3CC[N+]4(CC3)CN3C(=N4)C(C(=O)O)=Cc4ccccc43)nc21.[Cl-]	-0.2387

Cited source: ChEMBL document CHEMBL4396913
